Tested on: Phytophthora infestans
Assay type: in vivo
Measurement setup: tomato plants, preventive spray, 500 ppm of active ingredient, evaluated 7 days after inoculation; 0% = untreated control, 100% = no disease
Assay metric: efficacy (%)

molecule="CCCC(=O)C(C#N)=C(NC(C)C(C)C)c1ccc(Cl)nc1Cl (stereo not shown) [Compound 90]" tgt="Phytophthora infestans" assay_metric=efficacy result=97
molecule="CCCC(=O)C(C#N)=C(NC(C)c1ccsn1)c1cccnc1Cl (stereo not shown) [Compound 85]" tgt="Phytophthora infestans" assay_metric=efficacy result=97
molecule="CCCC(=O)C(C#N)=C(NC(C)COCC)c1cccnc1Cl (stereo not shown) [Compound 86]" tgt="Phytophthora infestans" assay_metric=efficacy result=97
molecule="COCCC(=O)C(C#N)=C(NC(C)C(C)C)c1cn(C)nc1C(F)F (stereo not shown) [Compound 62]" tgt="Phytophthora infestans" assay_metric=efficacy result=75
molecule="CCCC(=O)C(C#N)=C(NC(C)C1(Cl)CC1)c1cccnc1Cl (stereo not shown) [Compound 33]" tgt="Phytophthora infestans" assay_metric=efficacy result=90
molecule="COCC(=O)C(C#N)=C(NC(C)C1(Cl)CC1)c1cccnc1Cl (stereo not shown) [Compound 36]" tgt="Phytophthora infestans" assay_metric=efficacy result=70
molecule="CCCC(=O)C(C#N)=C(NC(C)C(C)(C)C)c1cn(C)nc1C(F)F (stereo not shown) [Compound 84]" tgt="Phytophthora infestans" assay_metric=efficacy result=100
